Origin of measurements: patent US10941182

tested_target: T1, human APJ receptor (human, UniProt P35414 1-380)
T1 sequence (looked up): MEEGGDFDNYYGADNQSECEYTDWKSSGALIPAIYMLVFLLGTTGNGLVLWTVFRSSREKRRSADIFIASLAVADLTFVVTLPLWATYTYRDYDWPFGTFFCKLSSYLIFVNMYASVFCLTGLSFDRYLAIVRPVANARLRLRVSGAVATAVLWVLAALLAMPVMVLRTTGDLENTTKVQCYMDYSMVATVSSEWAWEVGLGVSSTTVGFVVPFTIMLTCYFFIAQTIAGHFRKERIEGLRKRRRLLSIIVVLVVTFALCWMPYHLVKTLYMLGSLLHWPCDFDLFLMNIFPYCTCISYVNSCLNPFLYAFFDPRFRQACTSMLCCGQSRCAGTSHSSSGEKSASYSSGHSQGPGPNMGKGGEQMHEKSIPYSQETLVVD
method_summary: cell-based or functional assay
Starred links: 1 amine or outer side, 2 acyl side, 3 side chain; linkers in the order of their positions; H or OH if unused. Non-standard residues stand in square brackets, D forms with d. Primed or numbered codes have the meaning given here. No end group written: not given here. *: point of attachment. rHis = histidine with ψ(CH2NH) reduced amide bond, c1nc(C[C@@H](C[*:2])N[*:1])c[nH]1; DrSer = D-serine with ψ(CH2NH) reduced amide bond, C(O[*:3])[C@H](C[*:2])N[*:1]; dBip = N[C@H](Cc1ccc(-c2ccccc2)cc1)C(=O)O; Oic = O=C(O)[C@@H]1C[C@@H]2CCCC[C@@H]2N1; Phe(4-Cl) = N[C@@H](Cc1ccc(Cl)cc1)C(=O)O; Heptadecanoyl = CCCCCCCCCCCCCCCCC(=O)*; Phe(4-I) = N[C@@H](Cc1ccc(I)cc1)C(=O)O; γGlu = O=C(O)[C@H](CCC(=O)[*:2])N[*:1]; d1Nal = N[C@H](Cc1cccc2ccccc12)C(=O)O; NMeR = CN[C@@H](CCCNC(=N)N)C(=O)O; Tridecanoyl = CCCCCCCCCCCCC(=O)*; hArg = N=C(N)NCCCC[C@H](N)C(=O)O; Cha = N[C@@H](CC1CCCCC1)C(=O)O; NMeL = CN[C@@H](CC(C)C)C(=O)O; β3hL = CC(C)C[C@H](N)CC(=O)O; αMeP = C[C@@]1(C(=O)O)CCCN1; Nle = CCCC[C@H](N)C(=O)O; Orn = NCCC[C@H](N)C(=O)O; Pip′ = not defined here; BPhe = β-phenylalanine; AEEA = NCCOCCOCC(=O)O; Aib = CC(C)(N)C(=O)O; BLeu = β-leucine; BLys = β-lysine
Decision: EC50 Human APJ Receptor beneath 200 pM gives fulfilled; EC50 Human APJ Receptor meeting or exceeding 200 pM gives not fulfilled.

INSERT INTO results (binder, class_assignment) VALUES
  ('[Orn]F[hArg][hArg]Q[hArg]P[hArg][Cha]SHKG[Oic][Nle][Pip′][Phe(4-Cl)] [apelin polypeptide SEQ ID NO: 711]', 'not fulfilled'),
  ('[Orn][BPhe][hArg][hArg]Q[hArg]P[hArg][Cha]SHKG[Oic][Nle]P[Phe(4-Cl)] [apelin polypeptide SEQ ID NO: 687]', 'fulfilled'),
  ('[Orn]F[hArg][hArg]Q[hArg]P[hArg][Cha]SHKG[Oic][Nle][d1Nal] [apelin polypeptide SEQ ID NO: 712]', 'not fulfilled'),
  ('[Orn]F[hArg][hArg]Q[NMeR]P[NMeR][Cha]SHKG[Oic][Nle]P[Phe(4-Cl)] [apelin polypeptide SEQ ID NO: 672]', 'not fulfilled'),
  ('[Orn]F[hArg][hArg]Q[hArg]P[hArg][Cha]SH[BLys]G[Oic][Nle]P[Phe(4-Cl)] [apelin polypeptide SEQ ID NO: 702]', 'not fulfilled'),
  ('[Orn]F[hArg][hArg]Q[hArg]P[hArg][Cha]SHK[Aib][Oic][Nle]P[Phe(4-Cl)] [apelin polypeptide SEQ ID NO: 681]', 'not fulfilled');

I wonder whether [hArg]Q[hArg]P[NMeR][Cha]SHKG[Oic][Nle]P[Phe(4-Cl)] [apelin polypeptide SEQ ID NO: 674] has EC50 Human APJ Receptor below 200 pM. Can you tell?
fulfilled

I wonder whether Heptadecanoyl-[γGlu][AEEA][AEEA][hArg]Q[dR]P[NMeR][Cha]SHKG[Oic][Nle][Pip′][Phe(4-Cl)]-OH [apelin polypeptide SEQ ID NO: 239] has EC50 Human APJ Receptor below 200 pM. Can you tell?
not fulfilled

I wonder whether Ac-[dR]Q[hArg]P[dR][NMeL]SHKG[Oic][Phe(4-I)]P[dBip]-OH [apelin polypeptide SEQ ID NO: 50] has EC50 Human APJ Receptor below 200 pM. Can you tell?
not fulfilled

I wonder whether [Orn]F[hArg][NMeR]Q[hArg]P[hArg][Cha]SHKG[Oic][Nle]P[Phe(4-Cl)] [apelin polypeptide SEQ ID NO: 670] has EC50 Human APJ Receptor below 200 pM. Can you tell?
fulfilled

I wonder whether Ac-[Orn]F[hArg][hArg]Q[hArg]P[hArg][Cha][DrSer]HKG[Oic][Nle]P[Phe(4-Cl)]-OH (also: reduced amide bond at D-Ser10 (DrSer)) [apelin polypeptide SEQ ID NO: 44] has EC50 Human APJ Receptor below 200 pM. Can you tell?
not fulfilled

I wonder whether [Orn]F[hArg][hArg]Q[hArg]P[hArg][Cha]SHKG[Oic][Nle][Aib][Phe(4-Cl)] [apelin polypeptide SEQ ID NO: 685] has EC50 Human APJ Receptor below 200 pM. Can you tell?
fulfilled

I wonder whether Tridecanoyl-[γGlu][AEEA][AEEA][dQ][hArg]P[dR][BLeu]SHKG[Oic][Nle]P[Phe(4-Cl)]-OH [apelin polypeptide SEQ ID NO: 274] has EC50 Human APJ Receptor below 200 pM. Can you tell?
not fulfilled

I wonder whether Ac-[Orn]F[hArg][hArg]Q[hArg][αMeP][hArg][Cha]SHKG[Oic][Nle]P[Phe(4-Cl)]-OH [apelin polypeptide SEQ ID NO: 33] has EC50 Human APJ Receptor below 200 pM. Can you tell?
fulfilled

I wonder whether Ac-[Orn]F[hArg][hArg][BLeu][hArg]P[hArg][Cha]SHKG[Oic][Nle]P[Phe(4-Cl)]-OH [apelin polypeptide SEQ ID NO: 29] has EC50 Human APJ Receptor below 200 pM. Can you tell?
fulfilled

I wonder whether Ac-[hArg]Q[dR]P[NMeR][Cha]SHKG[Oic][Nle][d1Nal]-OH (SMILES CCCC[C@H](NC(=O)[C@@H]1C[C@@H]2CCCC[C@@H]2N1C(=O)CNC(=O)[C@H](CCCCN)NC(=O)[C@H](Cc1c[nH]cn1)NC(=O)[C@H](CO)NC(=O)[C@H](CC1CCCCC1)NC(=O)[C@H](CCCNC(=N)N)N(C)C(=O)[C@@H]1CCCN1C(=O)[C@@H](CCCNC(=N)N)NC(=O)[C@H](CCC(N)=O)NC(=O)[C@H](CCCCNC(=N)N)NC(C)=O)C(=O)N[C@H](Cc1cccc2ccccc12)C(=O)O) [apelin polypeptide SEQ ID NO: 25] has EC50 Human APJ Receptor below 200 pM. Can you tell?
not fulfilled

I wonder whether [Orn]F[hArg][hArg]Q[hArg]P[hArg][β3hL]SHKG[Oic][Nle]P[Phe(4-Cl)] [apelin polypeptide SEQ ID NO: 697] has EC50 Human APJ Receptor below 200 pM. Can you tell?
not fulfilled

I wonder whether Ac-[Orn]F[hArg][hArg]Q[hArg]P[hArg][Cha]S[rHis]KG[Oic][Nle]P[Phe(4-Cl)]-OH (also: reduced amide bond (CH2NH) at residue 11) [apelin polypeptide SEQ ID NO: 40] has EC50 Human APJ Receptor below 200 pM. Can you tell?
not fulfilled
